Target: EGFR del19/C797S (Homo sapiens, UniProt P00533, C797S/DEL746-750)
Sequence (P00533 with tags, fused parts or gaps DEL746-750/C797S): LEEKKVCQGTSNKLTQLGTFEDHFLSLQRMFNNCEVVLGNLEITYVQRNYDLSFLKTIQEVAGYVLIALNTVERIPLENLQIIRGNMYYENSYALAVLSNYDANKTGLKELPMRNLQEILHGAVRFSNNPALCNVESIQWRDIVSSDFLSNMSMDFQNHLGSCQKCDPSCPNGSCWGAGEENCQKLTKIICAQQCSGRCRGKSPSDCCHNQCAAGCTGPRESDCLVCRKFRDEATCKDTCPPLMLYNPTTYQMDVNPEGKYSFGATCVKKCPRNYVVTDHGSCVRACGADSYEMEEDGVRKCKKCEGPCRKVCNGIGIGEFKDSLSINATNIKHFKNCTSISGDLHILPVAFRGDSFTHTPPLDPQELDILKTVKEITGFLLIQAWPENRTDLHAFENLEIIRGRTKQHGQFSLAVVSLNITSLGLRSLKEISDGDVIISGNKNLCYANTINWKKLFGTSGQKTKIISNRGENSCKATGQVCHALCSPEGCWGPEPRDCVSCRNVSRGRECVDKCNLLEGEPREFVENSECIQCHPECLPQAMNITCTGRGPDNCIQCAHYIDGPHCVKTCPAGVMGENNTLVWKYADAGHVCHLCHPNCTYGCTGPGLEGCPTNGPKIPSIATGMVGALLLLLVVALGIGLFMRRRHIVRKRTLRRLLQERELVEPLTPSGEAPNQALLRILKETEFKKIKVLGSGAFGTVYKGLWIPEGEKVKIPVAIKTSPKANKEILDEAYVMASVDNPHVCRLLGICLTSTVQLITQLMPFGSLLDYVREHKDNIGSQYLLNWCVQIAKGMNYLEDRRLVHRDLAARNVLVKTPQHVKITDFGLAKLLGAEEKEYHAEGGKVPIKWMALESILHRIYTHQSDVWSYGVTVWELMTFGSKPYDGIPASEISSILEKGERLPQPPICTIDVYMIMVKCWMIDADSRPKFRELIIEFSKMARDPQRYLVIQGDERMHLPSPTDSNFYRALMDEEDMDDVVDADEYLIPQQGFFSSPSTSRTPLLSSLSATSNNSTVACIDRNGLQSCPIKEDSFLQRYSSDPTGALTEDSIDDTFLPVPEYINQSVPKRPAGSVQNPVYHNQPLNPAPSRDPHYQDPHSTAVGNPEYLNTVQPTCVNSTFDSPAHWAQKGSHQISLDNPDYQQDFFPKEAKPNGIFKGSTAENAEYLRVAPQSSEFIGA
Assay: Biochemical EGFR kinase assay (Lance Ultra TR-FRET), double mutant del19/C797S
Conditions: ATP at Km; read-out: IC50 del19/C797S, Km ATP

# TEST_SMILES, IC50
measured = [
    ("O=S(=O)(C1CC1)n1cc(-c2nccc(Nc3cc(N[C@H]4CC[C@@H](CO)CC4)c(-c4ccc(CC(F)(F)F)cn4)cn3)n2)cn1", "4.9 nM"),
    ("CN1CCN(S(=O)(=O)c2ccc(-c3cnc(Nc4ccnc(-c5cnn(S(=O)(=O)C6CC6)c5)n4)cc3N[C@H]3CC[C@@](C)(O)CC3)nc2)CC1", "2.3 nM"),
    ("O=C(c1ccc(-c2cnc(Nc3ccnc(-c4cnn(S(=O)(=O)C5CC5)c4)n3)cc2N[C@H]2CC[C@@H](CO)CC2)nc1)N1CCOCC1", "0.3 nM"),
    ("CN(C)C[C@H]1CC[C@@H](Nc2cc(Nc3ccnc(-c4cnn(S(=O)(=O)C5CC5)c4)n3)ncc2-c2ccc(C(C)(C)O)cn2)CC1", "0.1 nM"),
    ("CN(C)C[C@H]1CC[C@@H](Nc2cc(Nc3ccnc(-c4cnn(S(=O)(=O)C5CC5)c4)n3)ncc2-c2ccc(CC(F)(F)F)cn2)CC1", "1.1 nM"),
    ("CN(C)CCOc1ccc(-c2cnc(Nc3ccnc(-c4cnn(S(=O)(=O)C5CC5)c4)n3)cc2N[C@H]2CC[C@@](C)(O)CC2)nc1", "0.2 nM"),
]
